Where do these numbers come from? They come from patent US20090062255A1.

target: peripheral benzodiazepine receptor (PBR) (Rattus norvegicus); construct: CBR and PBR were obtained from rat brain and heart membrane-fractions, respectively; from tissue; host or cells: Wistar rat heart membranes; experiment: In-house PBR binding assay ([3H]PK11195, rat heart mitochondrial membranes); settings: Ki=EC50/(1+[ligand]/Kd), [ligand]=1.6 nM; read-out: calculated Ki
measure.name: Ki

Consider CC(C)=CCC/C(C)=C/CC/C(C)=C/CN1C(=O)c2cccc(O)c2Nc2c(O)cc(O)cc21 [Compound 1] . Its measured Ki is ~1400 nM

====

Test system: Acyl CoA-Cholesterol Acyltransferase (ACAT)
Experiment: ACAT enzyme assay
Type: biochemical, rat
Conditions: 10 μM compound, 1% DMSO
Source text: Acyl CoA-Cholesterol Acyltransferase (ACAT) converts cholesterol to cholesteryl esters and is involved in the development of artherioscerosis. […]
measure.name: Percentage of inhibition or binding activity, ACAT (10 μM) (%)
Value expressed in %; do not type the unit.

compound=COc1cc(OC)c2c(c1)N(CC=C(C)CCC=C(C)CCC=C(C)C)C(=O)c1cccc(OC)c1N2 measure_unit=% observed=40
compound="CC(C)CCCC(C)CCCC(C)CCN1C(=O)c2cccc(O)c2Nc2c(O)cc(O)cc21 (stereo not drawn)" measure_unit=% observed=8
compound=CC(=O)Oc1cc(OC(C)=O)c2c(c1)N(CC=C(C)CCC=C(C)CCC=C(C)C)C(=O)c1cccc(OC(C)=O)c1N2 measure_unit=% observed=83
compound=CC(C)=CCC/C(C)=C/CC/C(C)=C/CN1C(=O)c2cccc(O)c2Nc2c(O)cc(O)cc21 measure_unit=% observed=90
compound=COc1cccc2c1Nc1c(O)cc(O)cc1N(C/C=C(\C)CC/C=C(\C)CCC=C(C)C)C2=O measure_unit=% observed=65

// returns Percentage of inhibition or binding activity, ACAT (10 μM) for "CC(C)=CCC/C(C)=C/CC/C(C)=C/CN1C(=O)c2cccc(O)c2N(Cc2ccccc2)c2c(O)cc(O)cc21" with Acyl CoA-Cholesterol Acyltransferase (ACAT); value = 63

====

Experiment: Plasma and tissue drug levels after IV bolus and CIV infusion, rat C6 orthotopic brain tumors
Type: in vivo
Conditions: rat, tumor, intravenous, FIG. 7; read-out: accumulation in the tumor (mean level)
Method: 14 days post-tumor implantation, rats received a bolus IV administration of compound 1 (30 mg/kg; 1.5 mL at 0.5 mL per min) followed by continuous IV infusion (5 mg/kg/hour; 0.7 mL/hour) over 3 hours. The animals were then sacrificed by anesthetic overdose and blood was collected by heart puncture. Brain, tumor and liver were snap-frozen in liquid nitrogen and stored at −80° C. until analysis. Blood samples was collected into K2-EDTA tubes and kept on ice for a maximum of 30 min. […]
measure.name: concentration at 3 h (µg/mL)
Value expressed in µg/mL; do not type the unit.

Consider "CC(C)=CCC/C(C)=C/CC/C(C)=C/CN1C(=O)c2cccc(O)c2Nc2c(O)cc(O)cc21" . Its measured concentration at 3 h is 176

====

tested on: SRBC; experiment: Hemolysis of SRBC; type: cell-based; details: concentration necessary to achieve 50% hemolysis of SRBC
measure.name: Hemolysis (ED50 μg/mL)

Example compounds with recorded Hemolysis (ED50 μg/mL):
compound=COc1cc(O)cc2c1Nc1c(O)cccc1C(=O)N2C/C=C(\C)CC/C=C(\C)CCC=C(C)C measure_name="Hemolysis (ED50 μg/mL)" observed=">64 µg/mL"
compound=CC(=O)Oc1cc(OC(C)=O)c2c(c1)N(CC=C(C)CCC=C(C)CCC=C(C)C)C(=O)c1cccc(OC(C)=O)c1N2 measure_name="Hemolysis (ED50 μg/mL)" observed=">64 µg/mL"

Consider "CCCCN1c2c(O)cccc2C(=O)N(C/C=C(\C)CC/C=C(\C)CCC=C(C)C)c2cc(O)cc(O)c21" . Its measured Hemolysis (ED50 μg/mL) is >64 µg/mL

Consider "CCCN1c2c(O)cccc2C(=O)N(C/C=C(\C)CC/C=C(\C)CCC=C(C)C)c2cc(O)cc(O)c21" . Its measured Hemolysis (ED50 μg/mL) is >64 µg/mL

Consider "CC(C)=CCC/C(C)=C/CC/C(C)=C/CN1C(=O)c2cccc(O)c2N(C)c2c(O)cc(O)cc21" . Its measured Hemolysis (ED50 μg/mL) is 5.12 µg/mL

Consider "CC(=O)Oc1cc(O)c2c(c1)N(CC=C(C)CCC=C(C)CCC=C(C)C)C(=O)c1cccc(OC(C)=O)c1N2" . Its measured Hemolysis (ED50 μg/mL) is 9.8 µg/mL

Consider "CCN1c2c(O)cccc2C(=O)N(C/C=C(\C)CC/C=C(\C)CCC=C(C)C)c2cc(O)cc(O)c21" . Its measured Hemolysis (ED50 μg/mL) is 43.9 µg/mL

Consider "CC(C)=CCC/C(C)=C/CC/C(C)=C/CN1C(=O)c2cccc(O)c2Nc2c1cc(O)c(Br)c2O" . Its measured Hemolysis (ED50 μg/mL) is 15.1 µg/mL

Consider "COc1cccc2c1Nc1c(OC)cc(O)cc1N(CC=C(C)CCC=C(C)CCC=C(C)C)C2=O" . Its measured Hemolysis (ED50 μg/mL) is >64 µg/mL

====

assay: in vivo; details: CD-1 nu/nu, mouse, iv
measure.name: MTD

Consider "CC(C)=CCC/C(C)=C/CC/C(C)=C/CN1C(=O)c2cccc(O)c2N(C)c2c(O)cc(O)cc21" . Its measured MTD is > 100 mg/kg

====

target: peripheral benzodiazepine receptor (PBR) (Rattus norvegicus); construct: CBR and PBR were obtained from rat brain and heart membrane-fractions, respectively; from tissue; host or cells: Wistar rat heart membranes; assay: PBR radioligand binding assay ([3H]PK-11195, rat heart); conditions: multiple dilutions; read-out: PBR inhibition constant (Ki)
measure.name: Ki (nM)
Value expressed in nM; do not type the unit.

Consider CC(C)=CCC/C(C)=C/CC/C(C)=C/CN1C(=O)c2cccc(O)c2Nc2c(O)cc(O)cc21 [Compound 1] . Its measured Ki is 257

====

inhibition at 4 µM for assorted compounds
biological target: Cyclooxygenase-2 (COX-2) (Homo sapiens); construct: host or cells: insect Sf21 cells; assay: COX-2 enzyme assay; type: biochemical; conditions: 4 μM compound, 1% DMSO; read-out: Percentage of inhibition or binding activity, COX-2 (4 μM)
Sequence (P35354 18-604): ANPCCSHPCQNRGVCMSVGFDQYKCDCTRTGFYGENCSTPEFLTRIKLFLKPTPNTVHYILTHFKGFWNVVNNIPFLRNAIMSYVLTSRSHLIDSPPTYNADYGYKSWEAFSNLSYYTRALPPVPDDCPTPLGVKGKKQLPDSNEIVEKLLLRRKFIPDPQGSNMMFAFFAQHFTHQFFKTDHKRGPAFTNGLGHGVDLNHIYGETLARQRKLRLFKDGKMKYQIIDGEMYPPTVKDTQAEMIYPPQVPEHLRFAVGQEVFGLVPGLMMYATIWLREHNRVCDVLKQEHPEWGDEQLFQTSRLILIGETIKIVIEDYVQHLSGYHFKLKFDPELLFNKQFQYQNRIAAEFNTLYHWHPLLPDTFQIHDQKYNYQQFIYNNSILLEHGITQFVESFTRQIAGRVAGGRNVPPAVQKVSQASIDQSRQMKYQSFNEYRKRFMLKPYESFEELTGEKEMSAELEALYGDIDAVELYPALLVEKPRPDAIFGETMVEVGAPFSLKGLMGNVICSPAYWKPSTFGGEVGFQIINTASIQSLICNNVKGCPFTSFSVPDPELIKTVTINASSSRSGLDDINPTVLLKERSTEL
Value expressed in %; do not type the unit.

Example compounds with recorded inhibition at 4 µM:
compound="CC(=O)Oc1cc(O)c2c(c1)N(CC=C(C)CCC=C(C)CCC=C(C)C)C(=O)c1cccc(OC(C)=O)c1N2 [Compound 11]" measure_name="inhibition at 4 µM" observed=57
compound="CC(C)=CCC/C(C)=C/CC/C(C)=C/CN1C(=O)c2cccc(O)c2Nc2c(O)cc(O)cc21 [Compound 1]" measure_name="inhibition at 4 µM" observed=96
compound="CC(=O)Oc1cc(OC(C)=O)c2c(c1)N(CC=C(C)CCC=C(C)CCC=C(C)C)C(=O)c1cccc(O)c1N2 [Compound 9]" measure_name="inhibition at 4 µM" observed=44
compound="COc1cc(OC)c2c(c1)N(C/C=C(\\C)CC/C=C(\\C)CCC=C(C)C)C(=O)c1cccc(O)c1N2 [Compound 6]" measure_name="inhibition at 4 µM" observed=45
compound="CC(C)CCCC(C)CCCC(C)CCN1C(=O)c2cccc(O)c2Nc2c(O)cc(O)cc21 (stereo not shown) [Compound 46]" measure_name="inhibition at 4 µM" observed=95
compound="COc1cccc2c1Nc1c(OC)cc(O)cc1N(CC=C(C)CCC=C(C)CCC=C(C)C)C2=O [Compound 7]" measure_name="inhibition at 4 µM" observed=26
compound="CC(=O)Oc1cccc2c1Nc1c(OC(C)=O)cc(O)cc1N(CC=C(C)CCC=C(C)CCC=C(C)C)C2=O [Compound 10]" measure_name="inhibition at 4 µM" observed=45
compound="COc1cc(O)cc2c1Nc1c(O)cccc1C(=O)N2C/C=C(\\C)CC/C=C(\\C)CCC=C(C)C [Compound 5]" measure_name="inhibition at 4 µM" observed=63
compound="COc1cccc2c1Nc1c(O)cc(O)cc1N(C/C=C(\\C)CC/C=C(\\C)CCC=C(C)C)C2=O [Compound 4]" measure_name="inhibition at 4 µM" observed=78
compound="CC(C)=CCC/C(C)=C/CC/C(C)=C/CN1C(=O)c2cccc(O)c2N(Cc2ccccc2)c2c(O)cc(O)cc21 [Compound 3]" measure_name="inhibition at 4 µM" observed=76

Consider CC(=O)Oc1cc(OC(C)=O)c2c(c1)N(CC=C(C)CCC=C(C)CCC=C(C)C)C(=O)c1cccc(OC(C)=O)c1N2 [Compound 12] . Its measured inhibition at 4 µM is 30

Consider CC(C)=CCC/C(C)=C/CC/C(C)=C/CN1C(=O)c2cccc(O)c2N(C)c2c(O)cc(O)cc21 [Compound 2] . Its measured inhibition at 4 µM is 92

Consider COc1cc(OC)c2c(c1)N(CC=C(C)CCC=C(C)CCC=C(C)C)C(=O)c1cccc(OC)c1N2 [Compound 8] . Its measured inhibition at 4 µM is 19
